Source of measurements: the Immune Epitope Database (IEDB)

# study_system: HLA-A*69:01
# procedure_summary: IEDB peptide-MHC binding, purified MHC/direct/fluorescence; filed as Kd, often an IC50 or EC50 that approximates it; bounds were set here for any values at or beyond the usual limits of such assays
# study_conditions: source organism: Vibrio cholerae
pKd: −log10 of the molar value.
experimental_endpoint: pKd

[
  {
    "residues": "KGHLPLLDK",
    "result_value": "≤ 4.70"
  }
]

====

# study_system: HLA-A*02:01
# procedure_summary: IEDB peptide-MHC binding, purified MHC/direct/fluorescence; filed as Kd, often an IC50 or EC50 that approximates it; bounds were set here for any values at or beyond the usual limits of such assays
# study_conditions: source organism: Yersinia pestis Nepal516

[
  {
    "residues": "ETIFTVLAL",
    "Kd": "≥ 20 µM"
  }
]

====

# study_system: HLA-A*69:01
# procedure_summary: IEDB peptide-MHC binding, purified MHC/direct/fluorescence; filed as Kd, often an IC50 or EC50 that approximates it; bounds were set here for any values at or beyond the usual limits of such assays
# study_conditions: source organism: Mycobacterium tuberculosis
experimental_endpoint: Kd

[
  {
    "residues": "KPKLARGEL",
    "result_value": "≥ 20 µM"
  },
  {
    "residues": "LLHDIGKPV",
    "result_value": "≥ 20 µM"
  },
  {
    "residues": "RPKPDYSAM",
    "result_value": "≥ 20 µM"
  },
  {
    "residues": "RPRVAQLTF",
    "result_value": "≥ 20 µM"
  },
  {
    "residues": "LLLGGTSEI",
    "result_value": "0.846 µM"
  }
]

====

# study_system: HLA-C*15:02
# procedure_summary: IEDB peptide-MHC binding, purified MHC/direct/fluorescence; filed as Kd, often an IC50 or EC50 that approximates it; bounds were set here for any values at or beyond the usual limits of such assays
# study_conditions: source organism: Campylobacter jejuni

[
  {
    "residues": "YTKKYLLSF",
    "Kd, µM": 5
  }
]

====

# study_system: HLA-B*57:01
# procedure_summary: IEDB peptide-MHC binding, purified MHC/direct/fluorescence; filed as Kd, often an IC50 or EC50 that approximates it; bounds were set here for any values at or beyond the usual limits of such assays
# study_conditions: source organism: Camelpox virus M-96
experimental_endpoint: Kd

[
  {
    "residues": "LTFLHTLYK",
    "result_value": "≥ 20 µM"
  },
  {
    "residues": "FVHTLLKTY",
    "result_value": "≥ 20 µM"
  },
  {
    "residues": "ATNDGLIKK",
    "result_value": "≥ 20 µM"
  }
]

====

# study_system: HLA-B*46:01
# procedure_summary: IEDB peptide-MHC binding, purified MHC/competitive/fluorescence; filed as Kd, often an IC50 or EC50 that approximates it; bounds were set here for any values at or beyond the usual limits of such assays
# study_conditions: source organism: Bacillus anthracis str. A2012
experimental_endpoint: Kd (nM)

[
  {
    "residues": "SMFDSWGPF",
    "units_text": "nM",
    "result_value": 4.3
  }
]

====

# study_system: HLA-B*58:01
# procedure_summary: IEDB peptide-MHC binding, purified MHC/direct/fluorescence; filed as Kd, often an IC50 or EC50 that approximates it; bounds were set here for any values at or beyond the usual limits of such assays
# study_conditions: source organism: Shigella flexneri
pKd: −log10 of the molar value.

[
  {
    "residues": "VVISKKDTY",
    "pKd": "≤ 4.70"
  }
]
